B1: library; a variant is named by its letters at N, in order (parent)
chain: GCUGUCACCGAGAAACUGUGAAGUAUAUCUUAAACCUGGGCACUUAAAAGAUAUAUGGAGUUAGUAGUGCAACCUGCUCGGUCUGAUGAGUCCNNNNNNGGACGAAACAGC

# Variants of: B1
# Assay comment: normalized RNA/DNA level without ligand (relative to sTRSVctl = 100) (log10 (% of sTRSVctl)); HEK293T; ligand: cyclic di-GMP (c-di-GMP-II aptamer); higher = less ribozyme self-cleavage, higher mRNA level
# Study conditions: reporter: mCherry (pCS4076), ligand present: no
Measurement type: normalized RNA/DNA level without ligand (log10)

> print(dat)
   mutations  observed.value
1     GCUAAC            1.49
2     UCACCU            1.74
3     CUACCA            1.62
4     AGUUCG            1.69

Source: the supplement of paper PMC6757056
